# Test system: Saccharomyces cerevisiae
# assay: protein stability index of tFT-peptide fusion (C-terminal peptide) (PSI (0-1 scale)); higher = more stable (slower turnover)
# assay.conditions: genetic background: das1 deletion; temperature: 30 C
experimental.readout: protein stability index
One number for each entry.

DNYLKYIKALLL [MSH2 C-terminal 12 aa] :: 0.71
IALAEHRVERSN [CLB3 C-terminal 12 aa] :: 0.718
KAFVEKLNSKKD [YBT1 C-terminal 12 aa] :: 0.707

List protein stability index for every entry below, keeping the order given.
1. FDSNVSVAVDER [SET5 C-terminal 12 aa]
2. FGGVRSPKMRRL [MRPS18 C-terminal 12 aa]
3. LSADGIYTAVPN [PAU17 C-terminal 12 aa]
4. EINNNLGVRLVD [DMA1 C-terminal 12 aa]
5. EEAFGKVQTKTF [SOL3 C-terminal 12 aa]

1. 0.699
2. 0.72
3. 0.695
4. 0.711
5. 0.71

Give measured protein stability index for every item shown.
1. QGPRPGNWDQED [CCT8 C-terminal 12 aa]
2. AGVNSARGVLRI [SFT2 C-terminal 12 aa]

1: 0.718; 2: 0.69

Take each entry in turn and give its protein stability index.
1. LISFGMGNTQVI [CLN2 C-terminal 12 aa]
2. VDDSDGDETMQI [TDA1 C-terminal 12 aa]
3. SICPAIRRKEDY [RDT1 C-terminal 12 aa]

1. 0.699
2. 0.707
3. 0.699

For each of the sequences below, note its protein stability index.
1. KLEKKQSERSTH [STE7 C-terminal 12 aa]
2. MRLTHKSKKKMK [SUE1 C-terminal 12 aa]
3. NEKENSLSLSRL [MGT1 C-terminal 12 aa]
4. SCFSYSVGSKFT [YPR170W-A C-terminal 12 aa]
5. LDAILLDIICND [MDM1 C-terminal 12 aa]

0.7
0.72
0.718
0.707
0.697

----------
# Tested on: Saccharomyces cerevisiae
# assay: protein stability index of tFT-peptide fusion (C-terminal peptide) (PSI (0-1 scale)); higher = more stable (slower turnover)
# assay.conditions: genetic background: cdc53-1; temperature: 37 C
Hi there, I'd appreciate the recorded protein stability index for every entry that follows.
Numbers only.

VFFMFVFFPFPG :: 0.584
VMLVISRLLLLF :: 0.523
GWLSVLVYFLSG :: 0.545

Okay, here is my list. What is protein stability index for each of these?
1. VWACWCGWVLLM
2. RALYLLALVGVS
3. FPFHSRPCLPVL
4. VYVSRTRPFSLY
5. LRSVVFFCRTLL

0.388
0.254
0.576
0.714
0.744

Parameter requested: protein stability index. Apply to each item below.
1. VFGSRCLLTVVV
2. IILGVRQIEVNS
3. GRCGGPRSLGVG
4. VFWVLVSFLFYV

1: 0.477; 2: 0.517; 3: 0.589; 4: 0.406

----------
# Test system: Saccharomyces cerevisiae
# assay: protein stability index of tFT-peptide fusion (C-terminal peptide) (PSI (0-1 scale)); higher = more stable (slower turnover)
# assay.conditions: genetic background: wild type; temperature: 30 C
experimental.readout: protein stability index
Answers are plain numbers.

Use the examples below as a reference point.
CGSDRINACVRI :: 0.727
TRLAGINGLLSA :: 0.689
LYNFLFLLPYSL :: 0.647

# per-item lookup of protein stability index; items listed below
1. PTPLPPRSPPPQ
2. SRTLPHRTAPHC
3. WGGLGGREPGGS
4. SYVLLQSYVSLV
5. PGPPPPPPALLP
6. KKGKQQKTEKNG

1. 0.754
2. 0.758
3. 0.74
4. 0.451
5. 0.658
6. 0.802

Go through the list and state protein stability index for each entry.
1. GGSVGSGSRLVV
2. VGLGLSVGKKEI
3. VCRADADRFVGL
4. CSSEGFSLASMI
5. LIAACSFPRSSI
6. CLSLVCGFPVVY
7. FSLGQCLFGLWV

1: 0.715; 2: 0.651; 3: 0.71; 4: 0.707; 5: 0.716; 6: 0.605; 7: 0.612

Respectfully, I request protein stability index for each entry included below.
1. QIQRSGGGGHCG
2. VKSAVLLFFLVT
3. TPPPPAPSPPPP

1. 0.739
2. 0.257
3. 0.761

----------
I'd be grateful if you could share measured protein stability index for these entries.
# System: Saccharomyces cerevisiae
# assay: protein stability index of tFT-peptide fusion (C-terminal peptide) (PSI (0-1 scale)); higher = more stable (slower turnover)
# assay.conditions: genetic background: wild type; temperature: 30 C

Example cases with answers are listed next.
RRTKKERQKSWK :: 0.649
PDPARSPLTSSY :: 0.657
GRGRFMPRDWYW :: 0.708

I'm hoping you can list protein stability index for every sequence here, please.
1. RKVTKLYDNIML
2. ISPTTFSTHDRC
3. PATPPPLPPLSP
4. YPTLMRNGTEKT
5. VRCAVVTMDLTL
6. NREPQPAHTHML

1. 0.776
2. 0.665
3. 0.701
4. 0.696
5. 0.691
6. 0.684

For each entry beneath this line, provide reported protein stability index.
1. RGIYSIGASGRS
2. RLLCLARMRGLH
3. HTVPTLLPPNVP
4. QGSKQKIISAAT

[0.695, 0.396, 0.665, 0.681]

----------
# Tested on: Saccharomyces cerevisiae
# assay: protein stability index of tFT-peptide fusion (C-terminal peptide) (PSI (0-1 scale)); higher = more stable (slower turnover)
# assay.conditions: genetic background: cdc34-1; temperature: 37 C
Returns one of fulfilled or not fulfilled; fulfilled when protein stability index is >= 0.4.

Example entries begin here.
WILPASFCVVFL :: fulfilled
AFYQSGGLVVVV :: fulfilled
RFFFFFPCLLAP :: not fulfilled

Check if protein stability index >= 0.4 (inclusive). Item: LAEHIFLVLDHG
fulfilled

Determine whether this sequence has protein stability index no lower than 0.4: FCRLCYLLLFCC
not fulfilled

Given GPFVRSALIFIF , state whether its protein stability index is at least 0.4.
fulfilled

For this sequence, is measured protein stability index 0.4 or higher? GCLSFVAAVHLH
fulfilled

Can CVFFPFLGVCYV be said to have protein stability index at or above 0.4?
fulfilled

Does the sequence DFHLPWPVALVW have recorded protein stability index that is 0.4 or more?
not fulfilled

Kindly determine if protein stability index recorded for GALVVSWAEVLC is above or exactly 0.4.
fulfilled

Does protein stability index meet or surpass 0.4 for GCRLRHRLVRIV ?
fulfilled

Is reported protein stability index greater than or equal to 0.4 here: VTLLCRFFMLVF
fulfilled

protein stability index >= 0.4 for FFCFFWLFHWFG ?
fulfilled

Is protein stability index at least 0.4? Consider THRAVGIGLRCC
fulfilled

Assess whether reported protein stability index for PPPPTPRPLLPP sits at 0.4 or higher.
fulfilled

Is the recorded value of protein stability index equal to or greater than 0.4 for this sequence? VVVRARVFFHIF
not fulfilled

Tell me whether protein stability index is at least 0.4 here: YNTVALRITLIT
fulfilled

Check the entry LEPFTGYTVIVM : does protein stability index equal or exceed 0.4?
not fulfilled

Does the sequence LCFLVALASMLF have recorded protein stability index that is 0.4 or more?
fulfilled

protein stability index >= 0.4 for LFHPPSFSLRLF ?
fulfilled

I'd appreciate it if you could say whether VRMMYSVQVWCG has protein stability index at least equal to 0.4.
not fulfilled

# check: protein stability index of VVRSIVVYTCVF is greater than or equal to 0.4
not fulfilled

Determine whether this sequence has protein stability index no lower than 0.4: RALYLLALVGVS
not fulfilled

Is it the case that SLFDQDCGGTVW has protein stability index reaching or exceeding 0.4?
fulfilled

Does the reported protein stability index for LSLGVGSDAEGG fall at or above the 0.4 mark?
fulfilled

Record WVGVVLLSVVGG ; criterion: protein stability index no lower than 0.4. Met?
not fulfilled

Does CLLVCCCFYRNV have a reported protein stability index of at least 0.4?
fulfilled

Please indicate if the recorded protein stability index for CFFPLFLCTAFC meets or exceeds 0.4.
fulfilled

----------
For each record, write down the corresponding protein stability index.
# Test system: Saccharomyces cerevisiae
# assay: protein stability index of tFT-peptide fusion (C-terminal peptide) (PSI (0-1 scale)); higher = more stable (slower turnover)
# assay.conditions: genetic background: wild type; temperature: 30 C
Give bare numbers.

ISVPMPSFGPLP :: 0.694
SSLLLLFYPPLP :: 0.712
CLLAAMTFYTVR :: 0.711
RLPPPPSPPPPP :: 0.688
PPRSPRPPPSRP :: 0.72
SPSPPSFRPSLH :: 0.712
RRPRKSAAGLRG :: 0.768
FGRSGDGVGGLA :: 0.667

Please state, for each entry, its recorded protein stability index.
1. PRAYPSNLPPSP
2. EEVKKRTLKVID
3. GWWAVSRSGCCC
4. NRNDKNIERRKM
5. VVGALRFSDLFK
6. AHFSRRSSSSVS

0.721
0.738
0.693
0.69
0.73
0.7

// each sequence listed below needs its protein stability index
1. GSMRRSSVTLSA
2. TKRLLPPRTVAI
3. PPLLPPPPQLLL

0.709
0.696
0.679

Please report protein stability index for every entry that follows.
1. PLPSLLLLPPFP
2. PPPPPPPLPPFT
3. SGGRRRAGKGAT
4. PSPPHPPIPTSP
5. NTTITKMYTKEW
6. VVRQDQPDLKSS

[0.701, 0.681, 0.69, 0.696, 0.714, 0.691]

This collection of values is drawn from the supplement of paper PMC10724198.
